Test: Plasma pharmacokinetics after single oral dose of Δ8-THCV in MCT oil (LC-MS/MS, non-compartmental analysis)
Format: in vivo, human
Conditions: 50 mg single oral Δ8-THCV in MCT oil; plasma; Median (Range)
Exercise: state measured tlast (time to last quantifiable concentration) for each of the compounds provided.

Solved cases (3 shown):
# compound, result
rows = [
    ("CCCc1cc(O)c2c(c1)OC(C)(C)[C@@H]1CC=C(CO)C[C@@H]21 (racemic) [11-OH-Δ8-THCV, (±)-11-hydroxy-Δ8-THCV]", "8 (6–8)"),
    ("CCCc1cc(O)c2c(c1)OC(C)(C)[C@@H]1CC=C(C(=O)O)C[C@@H]21", "8 (8–8)"),
    ("CCCc1cc(O)c2c(c1)OC(C)(C)[C@@H]1CC=C(C)C[C@@H]21 [Δ8-THCV, Δ8-tetrahydrocannabivarin]", "8 (6–8)"),
]

We next turn to a different compound, shown below.
Request: Given `CCCc1cc(O)c2c(c1)OC(C)(C)[C@@H]1CCC(C(=O)O)=C[C@@H]21` , state its recorded tlast (time to last quantifiable concentration).
Result: 8 (8–8)

This collection of values is drawn from paper PMC11676667.
